Quick reference for self-cleavage kobs at 2500 uM GlcN6P among some variants
B1: glmS ribozyme (parent)
chain: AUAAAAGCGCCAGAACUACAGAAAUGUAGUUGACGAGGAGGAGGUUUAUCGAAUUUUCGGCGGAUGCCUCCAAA

- Variants of: B1
- run description: self-cleavage kobs at 2500 uM GlcN6P; higher = faster cleavage; RNA array
- conditions: with glucosamine-6-phosphate
Fewer inactive variants are shown than the library holds.

G37A C50U; < 1e-05 s⁻¹

Exercise: # self-cleavage kobs at 2500 uM GlcN6P lookup, item G7C A33C A36C G66U
Key: < 1e-05 s⁻¹

The reported numbers originate from the supplement of paper PMC7125110.
